Reference source: patent US20110230406A1

Target: T1, rhBMP-2 (R&D Systems, Item number 355-BM/CF) (human, UniProt P12643 283-396)
T1 construct: Coupled to a CM4 chip by EDC/NHS in SPR; also called human recombinant BMP-2
T1 sequence (P12643 283-396 limits assumed): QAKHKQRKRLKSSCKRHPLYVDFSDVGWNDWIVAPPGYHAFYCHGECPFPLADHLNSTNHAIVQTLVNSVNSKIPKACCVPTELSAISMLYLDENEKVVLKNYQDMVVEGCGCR
Test: SPR (Biacore S51), rhBMP-2 on CM4 chip, peptide at 5 micromolar, 1:1 Langmuir fit, N=3
OUTCOME_MEASURE: Kd (nM)

>>> obs_value("AGRDSFNLLTSSPLPST (Fmoc solid phase synthesis; used in ALPHA, SPR and the alkaline phosphatase assay) [chemically synthesized peptide having SEQ ID NO: 6]")
303
>>> obs_value("AGYTSFALLKSAESTLP (Fmoc solid phase synthesis; used in ALPHA and SPR) [chemically synthesized peptide having SEQ ID NO: 3]")
398
